Data provenance is PubChem BioAssay.

- PROCEDURE SUMMARY: viability profiling in MM1S myeloma cells – cell-based, resazurin fluorescence, basal, 24 h, PK04 Diversity Set, profiling panel (AID 1174);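 further: MM1S multiple myeloma cell line; test concentration not given here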
- STUDY CONDITIONS: higher = more signal, called active from +8 up or from −8 down
Active and inactive are the calls of the source.
# z-score values compiled below

COMPOUND | REPORTED
COc1ccc(C#Cc2ccc3c(c2)[C@]2(C(=O)N3)[C@H](C(=O)O)[C@H]3C(=O)O[C@H](c4ccccc4)[C@H](c4ccccc4)N3[C@@H]2c2ccc(O)cc2)cc1 | 0.239 (inactive)
CC(c1ccccc1)C(O)C1C=CC2C(=O)N(C)C(=O)C2N1Nc1ccccc1 (stereo unspecified) | -1.27 (inactive)
[N-]=[N+]=Nc1ccccc1C[C@@]1(C(=O)NCCN2CCOCC2)N=C(c2ccc(OCCCO)cc2)O[C@@H]1c1ccccc1N=[N+]=[N-] | -2.12 (inactive)
COc1ccc(C#Cc2ccc3c(c2)[C@]2(C(=O)N3)[C@H](c3ccc(O)cc3)N3[C@H](c4ccccc4)[C@H](c4ccccc4)OC(=O)[C@H]3[C@@H]2C(=O)Nc2nc3ccccc3s2)cc1 | 0.415 (inactive)
NC(=O)[C@H]1[C@@H]2C(=O)O[C@@H](c3ccccc3)[C@@H](c3ccccc3)N2[C@@H](c2ccc(OCCO)cc2)[C@]12C(=O)Nc1ccc(C#CCCO)cc12 | -0.245 (inactive)

Then this compound:
Lookup: Given COc1cccc(C)c1NC(=O)O[C@H]1[C@H](OC(=O)Nc2ccc3c(c2)OCO3)[C@@H](OC(=O)Nc2ccc3c(c2)OCO3)[C@@H](OC)O[C@@H]1CO , state its recorded z-score.
Found: -1.06 (inactive)

---

- System: Inhibin beta A chain (activin A)
- PROCEDURE SUMMARY: small molecules binding activin A – biochemical, small-molecule microarray, 635 nm fluorescence scan, primary screen (AID 1107);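 further: mouse activin A protein probed at 4.33 µg/mL on printed slides; score merges bound-protein fluorescence near 667 nm with spot signal-to-noise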
- STUDY CONDITIONS: INHBA, higher = more signal
# cutoff 0.5 applies to composite z-score; >= gives Fulfilled, < gives Not fulfilled

Lookup: Reported composite z-score at or above 0.5? COC(=O)[C@@]1(Cc2ccc(OC)cc2)[C@H]2c3cc(C(=O)N4CCCC4)n(CCO)c3C[C@H]2CN1C(=O)c1ccccc1
Found: Not fulfilled

Lookup: Is composite z-score for COCC(=C=CC[C@H](O)c1ccc(CO)o1)CCO at or above 0.5?
Found: Fulfilled

Lookup: Decide: composite z-score of COC(=O)C/C=C/C[C@]1(O)C(=O)N(C)c2ccccc21 >= 0.5?
Found: Fulfilled

---

This section presents compounds with their documented composite z-score values.
- PROCEDURE SUMMARY: probe aWnt5a binding to arrayed compounds – biochemical, biotinylated probe, 635/667 nm fluorescence, primary screen (AID 1113);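 further: score merges 667 nm fluorescence intensity with signal-to-noise per printed feature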
- STUDY CONDITIONS: small-molecule microarray, higher = more signal
Reply with the value as a number alone.

COMPOUND | composite z-score
COC(=O)[C@@]1(Cc2ccc(F)cc2)[C@H]2c3cc(C(=O)N4CCCC4)n(CCc4c[nH]c5ccccc45)c3C[C@H]2CN1C(=O)c1ccccc1 | 0.0718
CCOC(=O)C[C@H]1[C@H](OC(=O)Cc2ccc3c(c2)OCO3)[C@@H](NC(=O)c2ccc3ccccc3n2)c2cc(OCCCO)ccc2N1C(=O)c1ccccc1 | -0.0269
CC1CC/C=C\[C@H]2OC34C=CCN(C(C)C)C(=O)[C@H]3N(CCO)C(=O)[C@@H]4C2C(=O)O1 (stereo not given in full) | -0.202
CCOc1cc(C(O)C2C=CC3C(=O)NC(=O)C3N2Nc2ccc(Cl)cc2Cl)ccc1O (stereo not given) | -0.154
CC[C@@H]1C=C(C(=O)O)[C@H](c2ccccc2)N1S(=O)(=O)c1ccc(C)cc1 | -0.113
COc1ccc([Si](C)(C)[C@H]2[C@H](CC(=O)N3Cc4ccccc4C[C@H]3CO)O[C@@]3(C(=O)N(Cc4ccc(N5CCOC5=O)cc4)c4ccccc43)[C@@H]2C)cc1 | -0.0944
C#Cc1cc2ccccc2oc1=O | -0.187
COC(=O)C1(CC(C)C)C=C2C(=C(c3ccccc3)C(=O)C2C)CN1 (stereo not given) | 0.554

Lookup: Give the measured composite z-score of O=C1O[C@@H](c2ccccc2)[C@@H](c2ccccc2)N2[C@@H](c3ccc(O)cc3)[C@]3(C(=O)Nc4ccc(C#CCCO)cc43)[C@@H](C(=O)N3CCN(c4ncccn4)CC3)[C@H]12 .
Found: -0.512

Lookup: Reported composite z-score, compound CCCNC(=O)[C@@]1(Sc2ccc(C)cc2)CC(=O)N(C2Cc3ccccc3C2)[C@@H]1c1ccc(CO)cc1I : ____
Found: 0.0932

Lookup: Entry under review: CC(C)C(CO)N1C(=O)[C@@H]2[C@H]3C(=O)OCC=C[C@H]3OC23C=CCN(c2ccc(Cl)cc2)C(=O)[C@@H]13 (stereo not given in full) . Reported composite z-score?
Found: -0.1

Lookup: If you can, please state the reported composite z-score value of Cc1ccc(S[C@]2(C(=O)NCCN3CCOCC3)CC(=O)N(Cc3ccccc3Cl)[C@@H]2c2ccc(CO)cc2I)cc1 .
Found: 0.522

Lookup: Which measured composite z-score value corresponds to O=c1cccc(-c2ccc([N+](=O)[O-])cc2)o1 ?
Found: 0.0775

Lookup: Report composite z-score for C=CCNC(=O)[C@@H]1[C@H]2C(=O)O[C@H](c3ccccc3)[C@H](c3ccccc3)N2[C@H](c2ccccc2OCCO)[C@@]12C(=O)N(C(=O)OCCOC)c1ccc(C#CC3(O)CCCCCC3)cc12 please.
Found: -0.0566

Lookup: Need composite z-score of CCCC=C(CCC)[C@@H](NS(=O)(=O)c1ccc(C(F)(F)F)cc1)c1ccccc1 , thanks.
Found: 0.0853

---

- PROCEDURE SUMMARY: budding yeast growth changes without added modifier – OD600, strain BY4716, 24 h, basal condition, primary screen (AID 1173)
- STUDY CONDITIONS: S. cerevisiae BY4716 growth, OD600, 24 h; higher = more signal, called active from +8 up or from −8 down
Kind request: treat 0.1 as inclusive, so z-score at 0.1 or higher is true, anything lower is false.

Example entries begin here.
MOLECULE | GROUP
CCCN1C(=O)[C@]2(Cc3ccccc31)N=C(c1ccc(OCCCO)cc1)O[C@@H]2c1ccccc1 | false
Cc1ccc(N2C(=O)c3ccccc3[C@@H](C(=O)NCCCN(C)C)[C@@H]2c2ccc(CO)cc2)nc1 | false
C=C[C@H]1C(C(=O)OCC)=CC[C@@H](c2ccccc2)N1S(=O)(=O)c1ccc(C)cc1 | true
COCCOC(=O)N1C(=O)[C@@]2(c3cc(C#CCCO)ccc31)[C@H](c1ccc(OCCO)cc1)N1[C@H](c3ccccc3)[C@H](c3ccccc3)OC(=O)[C@H]1[C@@H]2C(=O)Nc1nc2ccccc2s1 | true
C=C(COC)/C(=C/C[C@H](OC(=O)c1ccncc1)c1ccc(CO)o1)c1cnc2ccccc2c1 | true
COc1cc(NN2C(C(O)c3ccco3)C=CC3C(=O)N(C)C(=O)C32)cc(OC)c1OC (stereo not drawn) | true
[N-]=[N+]=NCc1ccccc1[C@@H]1OC(c2ccc(OCCCO)cc2)=N[C@]1(CCS(=O)(=O)c1ccccc1)C(=O)O | false

# evaluate next
Lookup: Evaluate NCCCCCNC(=O)[C@@H]1C[C@@H]2C(=O)N[C@@H](CCCCN)C(=O)N2[C@@H]1c1ccc(O)cc1 : z-score at minimum 0.1?
Found: true

---

- TARGET OR TEST SYSTEM: Concanavalin-A (Canavalia ensiformis) (UniProt P02866)
- Sequence (P02866 whole entry, looked up): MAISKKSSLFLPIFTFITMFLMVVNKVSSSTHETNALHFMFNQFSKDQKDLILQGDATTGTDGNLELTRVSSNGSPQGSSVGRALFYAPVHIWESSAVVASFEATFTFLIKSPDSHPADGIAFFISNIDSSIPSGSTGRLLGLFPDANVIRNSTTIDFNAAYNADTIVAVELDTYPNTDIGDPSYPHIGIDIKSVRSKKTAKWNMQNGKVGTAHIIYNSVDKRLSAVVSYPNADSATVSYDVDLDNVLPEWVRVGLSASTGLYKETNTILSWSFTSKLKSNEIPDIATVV
- PROCEDURE SUMMARY: compounds binding concanavalin A lectin – biochemical, small-molecule microarray, Alexa647 label, 635 nm, artefact control for SMM control protein annotation, primary screen (AID 1127);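 further: z combines 667 nm emission intensity with signal-to-noise across three replicate slides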
- STUDY CONDITIONS: ConA-A647 binding fluorescence, higher = more signal
Note that class boundaries on composite z-score are 0: < 0.6; 1: ≥ 0.6 and < 1; 2: ≥ 1

See these solved cases before continuing.
MOLECULE | GROUP
COc1ccc(C#Cc2ccc3c(c2)[C@]2(C(=O)N3)[C@H](C(=O)O)[C@H]3C(=O)O[C@H](c4ccccc4)[C@H](c4ccccc4)N3[C@@H]2c2ccc(O)cc2)cc1 | 0
COCCOC(=O)N1C(=O)[C@@]2(c3ccccc31)[C@H](C(=O)NC[C@H](O)c1ccccc1)[C@H]1C(=O)O[C@H](c3ccccc3)[C@H](c3ccccc3)N1[C@@H]2c1ccc(O)cc1 | 2
COC(=O)[C@@]1(Cc2ccccc2)[C@H]2c3cc(C(=O)N(C)C)n(Cc4ccc(C)o4)c3C[C@H]2CN1C(=O)c1ccccc1 | 0
CN1C(=O)C2C=CC(C(O)c3cccn3C)N(Nc3ccc([N+](=O)[O-])cc3[N+](=O)[O-])C2C1=O (stereo not drawn) | 0
NC(=O)NCC#Cc1ccc2c(c1)[C@]1(C(=O)N2)[C@H](c2ccccc2OCCO)N2[C@H](c3ccccc3)[C@H](c3ccccc3)OC(=O)[C@H]2[C@@H]1C(=O)NC[C@H](O)c1ccccc1 | 1

Lookup: For this molecule, which bin applies? COC(=O)C1=CC(CCCO)=CC(c2ccc(CN3CCCC3)cc2)N(Cc2cccc(OC(F)(F)F)c2)C=C1C(=O)OC (stereo not drawn)
Found: 2

Lookup: Determine which band this molecule sits in: COc1cc(NN2C(C(O)c3cc(OC)c(OC)c(OC)c3)C=CC3C(=O)N(C)C(=O)C32)cc(OC)c1OC (stereo not drawn)
Found: 1

Lookup: Which bin, given its composite z-score, does Cc1ccc(F)cc1S(=O)(=O)N[C@@H]1CCN(Cc2ccc(Br)cc2)C1 occupy?
Found: 0

Lookup: Could you tell me which band Cc1ccc(S[C@]2(C(=O)NCc3ccccc3)CC(=O)N(C3CCCCC3)[C@@H]2c2ccc(CO)cc2I)cc1 belongs to?
Found: 2

Lookup: Which composite z-score band matches CN(C)C(=O)[C@]1(CCC(=O)OC(C)(C)C)N=C(c2ccc(OCCCO)cc2)O[C@@H]1c1ccccc1CN=[N+]=[N-] ?
Found: 2

Lookup: Any idea which band CC[C@@H]1O[Si](C(C)C)(C(C)C)c2c1cc(-c1cc(C)c(OC)c(C)c1)nc2-c1ccc(Oc2ccccc2)cc1 is in?
Found: 0

Lookup: Band of Cc1cc(C)c(C(O)C2C=CC3C(=O)N(c4ccccc4)C(=O)C3N2Nc2ccccc2F)c(C)c1 (stereo not drawn) ?
Found: 0

Lookup: Into which bin does this molecule go? NCCCCCCNC(=O)[C@@H]1C[C@@H]2C(=O)N[C@@H](CCCCN)C(=O)N2[C@@H]1c1ccc(O)cc1
Found: 0

Lookup: Which of the defined bands does the recorded composite z-score of C=CCN1C(=O)[C@]2(CCS(=O)(=O)c3ccccc3)N=C(c3ccc(OCCCO)cc3)O[C@@H]2c2ccccc21 sit within?
Found: 2

Lookup: Textbook exercise: identify the category of the molecule given here, COCCCNC(=O)[C@@]1(Sc2ccc(C)cc2)CC(=O)N(C2Cc3ccccc3C2)[C@@H]1c1ccc(CO)cc1 , according to its measured value.
Found: 0
